Tested on: Calu-3
test.details: cell viability relative to DMSO; higher = less toxic
stated.conditions: 72 h; 10 nM
test.readout: cell viability (%)
Answers are plain numbers, in %.

1. CC(=O)N(O)[C@@H]1c2cc(C#N)ccc2OC(C)(C)[C@H]1O
90.8
2. CC(=O)Nc1ccccc1 [acetanilide]
94.6
3. CCCC1(CCC)CCC2(CCN(CCCN(CC)CC)C2)CC1
103

Answer for every listed entry: what is its cell viability? The entries follow.
1. CCCC(=O)O [sodium-butyrate]
2. CCS(=O)(=O)CCn1c([N+](=O)[O-])cnc1C
3. COc1ccc(CCC(=O)c2c(O)cc(O[C@@H]3O[C@H](CO)[C@@H](O)[C@H](O)[C@H]3O[C@@H]3O[C@@H](C)[C@H](O)[C@@H](O)[C@H]3O)cc2O)cc1O [Neohesperidin dihydrochalcone (Nhdc)]
4. COc1nccc(-c2c(-c3ccc(F)cc3)ncn2C2CCNCC2)n1
5. CC(/C=C1\SC(=S)N(CC(=O)O)C1=O)=C\c1ccccc1
6. COc1ccc2cc3[n+](cc2c1OC)CCc1cc2c(cc1-3)OCO2
7. N[C@@H](Cc1ccc(O)cc1)C(=O)O [plovamer-acetate]

1: 95.8; 2: 96.6; 3: 92.8; 4: 93.7; 5: 96.8; 6: 101; 7: 98.5

Please give cell viability for each item listed below.
1. c1cnc(NCc2ccc(CNc3ncccn3)cc2)nc1
2. C[C@H](Cc1ccc2c(c1)OC(C(=O)O)(C(=O)O)O2)NC[C@H](O)c1cccc(Cl)c1
3. CC(O)(P(=O)(O)O)P(=O)(O)O
4. CO[C@H]1/C=C/O[C@@]2(C)Oc3c(C)c(O)c4c(O)c(c(/C=N/N=C/N5CCCCC5)c(O)c4c3C2=O)NC(=O)/C(C)=C\C=C\[C@H](C)[C@H](O)[C@@H](C)[C@@H](O)[C@@H](C)[C@H](OC(C)=O)[C@@H]1C
5. C[C@H](Nc1ncnc2[nH]cnc12)c1nc2ccc(F)cc2c(=O)n1-c1ccccc1
6. CC1C=CC=CCCC=CC=CC=CC=CC(OC2OC(C)C(O)C(N)C2O)CC2OC(O)(CC(O)C(O)CCC(O)CC(O)CC(O)CC(=O)OC(C)C(C)C1O)CC(O)C2C(=O)O (stereo not given)
7. CN1CCN(CC/C=C2/c3ccccc3Sc3ccc(S(=O)(=O)N(C)C)cc32)CC1

1. 100
2. 101
3. 103
4. 102
5. 103
6. 84.5
7. 102

Go through the items and report each one's cell viability.
1. O=C1C(Cl)=C(NCCN2CCOCC2)C(=O)c2ncccc21
2. Cc1ccsc1C(=CCCN1CCC[C@@H](C(=O)O)C1)c1sccc1C
3. O=[N+]([O-])c1cncn1CCN1CCOCC1
4. CCCOc1ccc2[nH]cc(C3=CCNCC3)c2n1
5. CC1=C(/C=C/C(C)=C/C=C/C(C)=C/C(=O)Nc2ccc(O)cc2)C(C)(C)CCC1 [fenretinide]

1. 104
2. 103
3. 105
4. 84.5
5. 99.9
